Target: human NaV subtype, like NaV 1.7 (Homo sapiens, UniProt Q15858)
Sequence (Q15858 whole entry): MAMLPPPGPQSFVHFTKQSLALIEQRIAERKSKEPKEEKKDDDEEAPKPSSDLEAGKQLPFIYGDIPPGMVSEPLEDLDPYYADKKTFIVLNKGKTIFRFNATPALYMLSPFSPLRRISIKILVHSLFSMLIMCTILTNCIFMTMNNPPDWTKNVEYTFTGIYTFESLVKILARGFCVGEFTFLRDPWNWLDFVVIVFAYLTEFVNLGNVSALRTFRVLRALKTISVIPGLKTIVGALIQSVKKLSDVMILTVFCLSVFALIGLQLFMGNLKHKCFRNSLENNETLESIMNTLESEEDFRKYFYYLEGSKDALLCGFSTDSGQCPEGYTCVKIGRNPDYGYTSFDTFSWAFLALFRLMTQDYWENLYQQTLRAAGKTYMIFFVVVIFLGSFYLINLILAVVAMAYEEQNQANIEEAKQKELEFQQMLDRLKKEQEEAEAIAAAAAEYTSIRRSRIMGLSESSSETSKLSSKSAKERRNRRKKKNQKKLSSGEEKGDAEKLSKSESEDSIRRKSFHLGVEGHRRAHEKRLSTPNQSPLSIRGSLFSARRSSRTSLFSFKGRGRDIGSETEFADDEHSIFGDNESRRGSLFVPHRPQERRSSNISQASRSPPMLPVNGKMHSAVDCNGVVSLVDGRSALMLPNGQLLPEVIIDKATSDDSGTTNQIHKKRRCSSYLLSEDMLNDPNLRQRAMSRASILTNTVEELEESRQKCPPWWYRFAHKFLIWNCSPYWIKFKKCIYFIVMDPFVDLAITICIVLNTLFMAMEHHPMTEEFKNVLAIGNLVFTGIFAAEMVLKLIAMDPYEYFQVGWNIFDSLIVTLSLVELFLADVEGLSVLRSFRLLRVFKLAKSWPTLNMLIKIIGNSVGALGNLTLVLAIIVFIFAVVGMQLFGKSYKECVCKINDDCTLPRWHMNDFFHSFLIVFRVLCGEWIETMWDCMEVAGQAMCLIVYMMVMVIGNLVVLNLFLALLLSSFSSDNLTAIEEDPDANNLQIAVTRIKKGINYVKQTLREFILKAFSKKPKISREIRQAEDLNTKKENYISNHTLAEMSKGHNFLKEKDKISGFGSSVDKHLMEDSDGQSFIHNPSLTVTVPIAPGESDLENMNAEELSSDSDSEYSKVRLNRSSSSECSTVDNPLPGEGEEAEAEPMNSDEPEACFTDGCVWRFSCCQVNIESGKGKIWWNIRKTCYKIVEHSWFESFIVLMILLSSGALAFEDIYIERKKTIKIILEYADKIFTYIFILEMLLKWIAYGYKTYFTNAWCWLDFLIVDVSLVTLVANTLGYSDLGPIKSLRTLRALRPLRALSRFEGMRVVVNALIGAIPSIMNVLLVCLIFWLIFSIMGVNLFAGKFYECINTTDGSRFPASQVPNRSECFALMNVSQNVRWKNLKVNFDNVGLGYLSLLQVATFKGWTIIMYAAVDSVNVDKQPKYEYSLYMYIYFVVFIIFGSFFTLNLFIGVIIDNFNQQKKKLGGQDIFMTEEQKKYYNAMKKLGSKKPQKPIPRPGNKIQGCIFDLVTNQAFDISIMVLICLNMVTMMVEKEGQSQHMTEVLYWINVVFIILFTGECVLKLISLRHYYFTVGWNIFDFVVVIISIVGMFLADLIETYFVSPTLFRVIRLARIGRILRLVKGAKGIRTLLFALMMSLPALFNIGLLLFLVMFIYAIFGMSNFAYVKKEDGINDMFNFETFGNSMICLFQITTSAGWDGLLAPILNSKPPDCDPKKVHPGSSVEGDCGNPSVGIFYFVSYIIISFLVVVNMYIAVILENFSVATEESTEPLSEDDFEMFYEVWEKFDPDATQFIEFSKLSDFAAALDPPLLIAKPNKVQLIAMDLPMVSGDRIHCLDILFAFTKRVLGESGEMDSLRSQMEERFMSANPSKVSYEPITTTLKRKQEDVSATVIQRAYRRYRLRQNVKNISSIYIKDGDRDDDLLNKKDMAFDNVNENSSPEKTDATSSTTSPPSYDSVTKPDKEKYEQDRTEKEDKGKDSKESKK
Test: E-VIPR optical membrane potential assay with electrical stimulation
Conditions: active against one or more sodium channels; Table 3 does not name the assay or NaV subtype; read-out: Binned Activity Data (IC50)
Description: Assays for Detecting and Measuring NaV Inhibition Properties of Compound E-VIPR Optical Membrane Potential Assay Method with Electrical Stimulation Sodium channels are voltage-dependent proteins that can be activated by inducing membrane voltage changes by applying electric fields. The electrical stimulation instrument and methods of use are described in Ion Channel Assay Methods PCT/US01/21652, herein incorporated by reference and are referred to as E-VIPR. […] 7) Read Plate on E-VIPR. […]
REPORTED_ENDPOINT: IC50

Would you please look over these solved cases?
CCOc1ccc(C(=O)N2CCC3(CC2)c2ccc(C(=O)C(F)(F)F)n2CCN3C)cc1F [Compound 446] | 2 to 5 µM
CC(C)Oc1ccc(C(=O)N2CCC3(CC2)c2ccc(C(F)(F)F)n2C[C@H](C)N3C)c(F)c1 [Compound 152] | ≤ 2 µM
CC(=O)c1ccc2n1CCN(C)C21CCN(C(=O)c2ccc(S(=O)(=O)C(C)C)c(C)c2)CC1 [Compound 246] | > 5 µM
CCC(CC)(CC)c1ccc(C(=O)N2CCC3(CC2)c2ccc(C(C)=O)n2CCN3C)cc1 [Compound 511] | > 5 µM
CC(C)Oc1ccc(C(=O)N2CCC3(CC2)c2ccc(C(F)(F)F)n2CCN3C)nc1 [Compound 22] | > 5 µM
COc1cc(C(=O)N2CCC3(CC2)c2c(Cl)cc(C(F)(F)F)n2CCN3C)ccc1COCC(F)(F)F [Compound 687] | ≤ 2 µM
Cc1nc(C(=O)N2CCC3(CC2)c2ccc(C(=O)C(F)(F)F)n2CCN3C)ccc1O [Compound 322] | ≤ 2 µM

Turning now to a further compound:
Ask | Using human NaV subtype, like NaV 1.7 (Homo sapiens, UniProt Q15858) as the test system, report measured IC50 of CCCOc1ccc(C(=O)N2CCC3(CC2)c2ccc(C(C)=O)n2CCN3C)cc1 [Compound 507] .
Reply | > 5 µM

###

Hi there, I'd appreciate the recorded IC50 for every entry that follows.
target: human NaV subtype, like NaV 1.7 (Homo sapiens, UniProt Q15858); assay: E-VIPR optical membrane potential assay with electrical stimulation; conditions: active against one or more sodium channels; Table 3 does not name the assay or NaV subtype; read-out: Binned Activity Data (IC50)

Would you please look over these solved cases?
CCCCOc1ccc(C(=O)N2CCC3(CC2)NCCn2c(C(F)(F)F)ccc23)cc1OC | ≤ 2 µM
O=C(c1ccccc1Oc1ccccc1)N1CCC2(CC1)NCCn1c(C(F)(F)F)ccc12 | > 5 µM
CN1CCn2c(C(=O)C(F)(F)F)ccc2C12CCN(C(=O)c1ccc(C(C)(C)O)cc1)CC2 | 2 to 5 µM

Ask | Identify the reported IC50 for the following entry. CC(C)Oc1ccc(C(=O)N2CCC3(CC2)c2cc(C(=O)C(F)(F)F)cn2C(C)(C)CN3C)cc1F
Reply | > 5 µM

###

Hi there, I'd appreciate the recorded pIC50 for every entry that follows.
Molecular target: human NaV subtype, like NaV 1.7 (Homo sapiens, UniProt Q15858)
Assay: E-VIPR optical membrane potential assay with electrical stimulation
Details: active against one or more sodium channels; Table 3 does not name the assay or NaV subtype; read-out: Binned Activity Data (IC50)
Source text: Assays for Detecting and Measuring NaV Inhibition Properties of Compound E-VIPR Optical Membrane Potential Assay Method with Electrical Stimulation Sodium channels are voltage-dependent proteins that can be activated by inducing membrane voltage changes by applying electric fields. The electrical stimulation instrument and methods of use are described in Ion Channel Assay Methods PCT/US01/21652, herein incorporated by reference and are referred to as E-VIPR. […] 7) Read Plate on E-VIPR. […]
pIC50: −log10 of the molar value.

Would you please look over these solved cases?
Cc1cc(C(=O)N2CCC3(CC2)c2cc(C(=O)C(F)(F)F)cn2C(C)(C)CN3C)ccc1C(C)(C)O | < 5.30
COc1ccc(C(=O)N2CCC3(CC2)c2ccc(C(=O)C(F)(F)F)n2C[C@H](C)N3C)cc1C | ≥ 5.70
CC(C)Oc1ccc(C(=O)N2CCC3(CC2)c2ccc(C(=O)C4CC4)n2CCN3C)c(F)c1 | ≥ 5.70

Hi there! I need pIC50 for each item below, if you can.
1. CN1CCn2c(C(F)(F)F)cc(F)c2C12CCN(C(=O)c1ccc(S(=O)(=O)C(F)F)cc1)CC2
2. CCN1CCn2c(C(F)(F)F)ccc2C12CCN(C(=O)c1ccc(OC(C)C)c(OC)c1)CC2
3. CN1CCn2c(Cl)ccc2C12CCN(C(=O)c1ccc(C(C)(C)O)c(F)c1)CC2
4. Cc1cc(C(=O)N2CCC3(CC2)c2ccc(C(=O)C(C)(C)C)n2CCN3C)ccc1O

Reply |
1. ≥ 5.70
2. ≥ 5.70
3. ≥ 5.70
4. ≥ 5.70

Hi there! I need pIC50 for each item below, if you can.
1. CC(C)Oc1ccc(C(=O)N2CCC3(CC2)NCCn2c(C(F)(F)F)ccc23)c(F)c1
2. CC1(C)Cn2c(C(=O)C(F)(F)F)ccc2C2(CCN(C(=O)c3ccc(C(C)(C)O)c(F)c3)CC2)N1
3. CC(=O)c1ccc2n1CCN(C)C21CCN(C(=O)c2ccc(OCC3CC3)c(F)c2)CC1
4. CC(C)Oc1ccc(C(=O)N2CCC3(CC2)NC(C)(C)Cn2c(C(=O)C(F)(F)F)ccc23)cc1F
5. CN1CCn2c(C(F)(F)F)ccc2C12CCN(C(=O)c1cnn3c(C(F)F)cc(C4CC4)nc13)CC2
6. Cc1cc(C(=O)N2CCC3(CC2)c2ccc(C(=O)C(F)(F)F)n2CCN3C)ccc1OCCCO
7. COc1ccc(C(=O)N2CCC3(CC2)c2ccc(C(=O)C(C)(C)C)n2CCN3C)c(F)c1

Reply |
1. ≥ 5.70
2. ≥ 5.70
3. 5.30 to 5.70
4. ≥ 5.70
5. < 5.30
6. ≥ 5.70
7. 5.30 to 5.70

Hi there! I need pIC50 for each item below, if you can.
1. Cc1cc(C(=O)N2CCC3(CC2)c2ccc(C(=O)C(F)(F)F)n2CCN3C)ccc1-c1ccn(C)n1
2. CCOC(=O)CN1CCn2c(C(F)(F)F)ccc2C12CCN(C(=O)c1ccc(OC(C)C)c(C)c1)CC2
3. Cc1cc(C(=O)N2CCC3(CC2)c2ccc(Cl)n2CCN3C)ccc1S(=O)(=O)C(C)C
4. CC(C)Oc1ccc(C(=O)N2CCC3(CC2)c2ccc(C(=O)C(F)(F)F)n2C[C@@H](C)N3C)c(F)c1
5. Cc1cc(C(=O)N2CCC3(CC2)c2ccc(S(C)(=O)=O)n2CCN3C)ccc1OC(C)C

Reply |
1: < 5.30; 2: ≥ 5.70; 3: < 5.30; 4: ≥ 5.70; 5: < 5.30

Hi there! I need pIC50 for each item below, if you can.
1. CC(=O)c1ccc2n1CCN(C)C21CCN(C(=O)c2ccc(OC(C)C)c(C)c2)CC1
2. CN1CCn2c(C(F)(F)F)ccc2C12CCN(C(=O)c1cccnc1N1CCCC1)CC2
3. COc1cc(C(=O)N2CCC3(CC2)NC(C)(C)Cn2c(C(F)(F)F)ccc23)ccc1OC(C)(C)C

Reply |
["≥ 5.70", "≥ 5.70", "≥ 5.70"]

###

Hi there, I'd appreciate the recorded IC50 for every entry that follows.
biological target: human NaV subtype, like NaV 1.7 (Homo sapiens, UniProt Q15858); test: E-VIPR optical membrane potential assay with electrical stimulation; details: active against one or more sodium channels; Table 3 does not name the assay or NaV subtype; read-out: Binned Activity Data (IC50)

CC1(C)Cn2c(C(=O)C(F)(F)F)ccc2C2(CCN(C(=O)c3ccc(-c4ccccc4)c(O)c3)CC2)N1 | > 5000 nM
Cc1cc(C(=O)N2CCC3(CC2)c2cccn2CCN3Cc2ccccc2)ccc1OC(C)C | ≤ 2000 nM
COc1cc(C(=O)N2CCC3(CC2)NC(C)(C)Cn2cc(C(C)=O)cc23)ccc1C(C)(C)C | > 5000 nM
Cc1cc(C(=O)N2CCC3(CC2)c2ccc(C(F)(F)C(F)(F)F)n2CCN3C)ccc1OC(C)C | ≤ 2000 nM
CC[C@@H](C)Oc1ccc(C(=O)N2CCC3(CC2)c2c(F)cc(C(F)(F)F)n2CCN3C)cc1OC | ≤ 2000 nM

Hi there! I need IC50 for each item below, if you can.
1. CCCCOc1ccc(C(=O)N2CCC3(CC2)c2ccc(C(=O)C(F)(F)F)n2CCN3C)cc1
2. Cc1ccc(C(=O)N2CCC3(CC2)c2ccc(C(F)(F)F)n2CCN3C)cc1
3. Cc1cc(C(=O)N2CCC3(CC2)c2ccc(C(F)(F)F)n2CCN3CCO)ccc1OC(C)C

Reply |
["≤ 2000 nM", "> 5000 nM", "≤ 2000 nM"]

Hi there! I need IC50 for each item below, if you can.
1. Cc1cc(C(=O)N2CCC3(CC2)c2c(C#N)cc(C(F)(F)F)n2CCN3C)ccc1OC(C)C
2. CN1CCn2c(C(=O)C(F)(F)F)ccc2C12CCN(C(=O)c1ccc(C3CCCCC3)cc1)CC2
3. CCCOc1cc(C(=O)N2CCC3(CC2)c2ccc(C(C)=O)n2CCN3C)ccc1OC
4. COc1cc(C(=O)N2CCC3(CC2)c2ccc(C(=O)C(F)(F)F)n2CCN3C)ccc1OCC(C)C
5. CC(C)Oc1ccc(C(=O)N2CCC3(CC2)c2c(F)cc(C(F)(F)F)n2CCN3C)cc1F
6. CCNS(=O)(=O)c1ccc(C(=O)N2CCC3(CC2)c2ccc(C(F)(F)F)n2CCN3C)cc1C
7. CCc1ccc(C(=O)N2CCC3(CC2)c2ccc(C(=O)C(F)(F)F)n2CCN3C)cc1OC

Reply |
1. ≤ 2000 nM
2. ≤ 2000 nM
3. > 5000 nM
4. ≤ 2000 nM
5. ≤ 2000 nM
6. ≤ 2000 nM
7. ≤ 2000 nM

Ask | Using human NaV subtype, like NaV 1.7 (Homo sapiens, UniProt Q15858) as the test system, report measured IC50 of O=C(c1cccc2cccnc12)N1CCC2(CC1)NCCn1c(C(F)(F)F)ccc12 .
Reply | 2000 to 5000 nM
